Protein target, amino acids: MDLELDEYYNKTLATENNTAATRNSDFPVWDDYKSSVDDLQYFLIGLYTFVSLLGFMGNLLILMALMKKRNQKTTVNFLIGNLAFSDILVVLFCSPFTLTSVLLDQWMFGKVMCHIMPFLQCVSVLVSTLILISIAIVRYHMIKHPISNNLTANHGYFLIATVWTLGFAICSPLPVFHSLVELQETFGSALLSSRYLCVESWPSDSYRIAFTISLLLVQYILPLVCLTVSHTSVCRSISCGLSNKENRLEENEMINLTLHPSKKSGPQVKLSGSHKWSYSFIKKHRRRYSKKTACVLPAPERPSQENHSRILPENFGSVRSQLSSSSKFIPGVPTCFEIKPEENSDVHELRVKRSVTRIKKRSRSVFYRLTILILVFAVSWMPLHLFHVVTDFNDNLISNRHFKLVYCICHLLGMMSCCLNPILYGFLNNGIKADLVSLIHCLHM
pKi: −log10 of the molar value.
METRIC NAME: pKi

Cc1cc(/C=C/c2cc3c4c(c2)CCCN4CCC3)cc(C)[n+]1CCNC(=O)CCCC(=O)/N=C(/N)NCCC[C@@H](NC(=O)C(c1ccccc1)c1ccccc1)C(=O)NCc1ccc(O)cc1.O=C([O-])C(F)(F)F; < 5.30
CN(C)c1ccc(/C=C/C=C/c2sc3ccccc3[n+]2CCCC(=O)NCCCCNC(=O)/N=C(/N)NCCC[C@@H](NC(=O)C(c2ccccc2)c2ccccc2)C(=O)NCc2ccc(O)cc2)cc1.O=C([O-])C(F)(F)F; < 6.40

----------
Recorded Stability by entry
- EXPERIMENT SUMMARY: Chemical stability of the compound in DMSO at below 0 degC
- Type: physicochemical
METRIC NAME: Stability

Cc1cc(/C=C/c2cc3c4c(c2)CCCN4CCC3)cc(C)[n+]1CCN(CCNC(=O)CCCCCCC(=O)/N=C(\N)NCCC[C@@H](NC(=O)C(c1ccccc1)c1ccccc1)C(=O)NCc1ccc(O)cc1)CCNC(=O)CCCCCCC(=O)/N=C(\N)NCCC[C@@H](NC(=O)C(c1ccccc1)c1ccccc1)C(=O)NCc1ccc(O)cc1.O=C([O-])C(F)(F)F; 12 months
Cc1cc(/C=C/c2cc3c4c(c2)CCCN4CCC3)cc(C)[n+]1CCOCCOCCOCCC(=O)/N=C(/N)NCCC[C@@H](NC(=O)C(c1ccccc1)c1ccccc1)C(=O)NCc1ccc(O)cc1.O=C([O-])C(F)(F)F; 12 months
CN(C)c1ccc(/C=C/C=C/c2sc3ccccc3[n+]2CCCC(=O)ON2C(=O)CCC2=O)cc1.O=C([O-])C(F)(F)F; 12 months
CN(C)c1ccc(/C=C/C=C/c2sc3ccccc3[n+]2CCCC(=O)NCCNC(=O)CCCC(=O)/N=C(/N)NCCC[C@@H](NC(=O)C(c2ccccc2)c2ccccc2)C(=O)NCc2ccc(O)cc2)cc1.O=C([O-])C(F)(F)F; 12 months
Cc1cc(/C=C/c2cc3c4c(c2)CCCN4CCC3)cc(C)[n+]1CCCNC(=O)CCCC(=O)/N=C(/N)NCCC[C@@H](NC(=O)C(c1ccccc1)c1ccccc1)C(=O)NCc1ccc(O)cc1.O=C([O-])C(F)(F)F; 12 months
Cc1cc(/C=C/C=C/c2ccc(N(C)C)cc2)cc(C)[n+]1CCOCCOCC(=O)/N=C(/N)NCCC[C@@H](NC(=O)C(c1ccccc1)c1ccccc1)C(=O)NCc1ccc(O)cc1.O=C([O-])C(F)(F)F; 12 months

----------
- TARGET ENTITY: Neuropeptide Y receptor type 1 (Homo sapiens)
- Sequence (whole entry): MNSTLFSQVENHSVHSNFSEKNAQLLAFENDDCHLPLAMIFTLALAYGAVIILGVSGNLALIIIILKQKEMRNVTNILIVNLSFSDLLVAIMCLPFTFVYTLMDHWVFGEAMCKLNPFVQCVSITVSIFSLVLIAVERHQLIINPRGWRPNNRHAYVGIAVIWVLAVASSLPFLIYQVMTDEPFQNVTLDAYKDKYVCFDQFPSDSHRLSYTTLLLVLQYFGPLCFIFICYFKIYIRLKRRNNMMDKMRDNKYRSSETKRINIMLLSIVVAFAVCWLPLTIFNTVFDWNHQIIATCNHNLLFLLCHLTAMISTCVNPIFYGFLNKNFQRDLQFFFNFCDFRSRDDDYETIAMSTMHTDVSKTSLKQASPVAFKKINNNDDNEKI
- EXPERIMENT SUMMARY: Antagonist activity at Y1R in human HEL cells assessed as inhibition of pNPY induced [Ca2+] mobilisation
- Format: functional, cell-based
Recorded Kb by entry
METRIC NAME: Kb (nM)

Cc1cc(/C=C/c2cc3c4c(c2)CCCN4CCC3)cc(C)[n+]1CCN(CCNC(=O)CCCCCCC(=O)/N=C(\N)NCCC[C@@H](NC(=O)C(c1ccccc1)c1ccccc1)C(=O)NCc1ccc(O)cc1)CCNC(=O)CCCCCCC(=O)/N=C(\N)NCCC[C@@H](NC(=O)C(c1ccccc1)c1ccccc1)C(=O)NCc1ccc(O)cc1.O=C([O-])C(F)(F)F; 0.6
CN(C)c1ccc(/C=C/C=C/c2sc3ccccc3[n+]2CCCC(=O)NCCNC(=O)CCCC(=O)/N=C(/N)NCCC[C@@H](NC(=O)C(c2ccccc2)c2ccccc2)C(=O)NCc2ccc(O)cc2)cc1.O=C([O-])C(F)(F)F; 2.4

----------
- TARGET ENTITY: Neuropeptide Y receptor type 2 (Homo sapiens, UniProt P49146)
- Sequence (P49146 whole entry): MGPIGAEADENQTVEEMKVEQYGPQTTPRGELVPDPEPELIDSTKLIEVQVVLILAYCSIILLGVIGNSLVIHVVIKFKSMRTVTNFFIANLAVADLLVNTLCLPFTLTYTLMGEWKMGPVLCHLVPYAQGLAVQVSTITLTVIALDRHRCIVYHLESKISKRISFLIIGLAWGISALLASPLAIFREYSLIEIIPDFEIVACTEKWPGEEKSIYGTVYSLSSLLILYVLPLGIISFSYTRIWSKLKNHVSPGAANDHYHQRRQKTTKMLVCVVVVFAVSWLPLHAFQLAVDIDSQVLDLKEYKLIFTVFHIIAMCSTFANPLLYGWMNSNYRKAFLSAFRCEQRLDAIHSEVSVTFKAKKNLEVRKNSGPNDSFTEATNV
- EXPERIMENT SUMMARY: Displacement of Dy-635-pNPY from human Y2R expressed in CHO cells by flow cytometry
Recorded IC50 by entry
METRIC NAME: IC50

Cc1cc(/C=C/c2cc3c4c(c2)CCCN4CCC3)cc(C)[n+]1CCNC(=O)CCCC(=O)/N=C(/N)NCCC[C@@H](NC(=O)C(c1ccccc1)c1ccccc1)C(=O)NCc1ccc(O)cc1.O=C([O-])C(F)(F)F; > 10 µM
CN(C)c1ccc(/C=C/C=C/c2sc3ccccc3[n+]2CCCC(=O)NCCCCNC(=O)/N=C(/N)NCCC[C@@H](NC(=O)C(c2ccccc2)c2ccccc2)C(=O)NCc2ccc(O)cc2)cc1.O=C([O-])C(F)(F)F; > 1 µM

----------
Recorded degraded at 20 min by entry
- EXPERIMENT SUMMARY: Chemical stability in aqueous buffer assessed as compound decomposition after 20 mins at pH 7 by HPCL
- Assay type: physicochemical
- ASSAY SETUP: read-out: Activity
METRIC NAME: degraded at 20 min (%)

Cc1cc(/C=C/c2cc3c4c(c2)CCCN4CCC3)cc(C)[n+]1CCNC(=O)CCCC(=O)/N=C(/N)NCCC[C@@H](NC(=O)C(c1ccccc1)c1ccccc1)C(=O)NCc1ccc(O)cc1.O=C([O-])C(F)(F)F; 1
Cc1cc(/C=C/c2cc3c4c(c2)CCCN4CCC3)cc(C)[n+]1CCCCCC(=O)/N=C(/N)NCCC[C@@H](NC(=O)C(c1ccccc1)c1ccccc1)C(=O)NCc1ccc(CNC(N)=O)cc1.O=C([O-])C(F)(F)F; 0
Cc1cc(/C=C/c2cc3c4c(c2)CCCN4CCC3)cc(C)[n+]1CCN(CCNC(=O)CCCCC(=O)/N=C(\N)NCCC[C@@H](NC(=O)C(c1ccccc1)c1ccccc1)C(=O)NCc1ccc(O)cc1)CCNC(=O)CCCCC(=O)/N=C(\N)NCCC[C@@H](NC(=O)C(c1ccccc1)c1ccccc1)C(=O)NCc1ccc(O)cc1.O=C([O-])C(F)(F)F; 0
CN(C)c1ccc(/C=C/C=C/c2sc3ccccc3[n+]2CCCC(=O)NCCCCNC(=O)/N=C(/N)NCCC[C@@H](NC(=O)C(c2ccccc2)c2ccccc2)C(=O)NCc2ccc(O)cc2)cc1.O=C([O-])C(F)(F)F; 0

----------
- EXPERIMENT SUMMARY: Chemical stability in aqueous buffer assessed as compound decomposition after 90 mins at pH 7 by HPCL
- Format: physicochemical
- ASSAY SETUP: read-out: Activity
Recorded degraded at 1.5 h by entry
METRIC NAME: degraded at 1.5 h (%)

CN(C)c1ccc(/C=C/C=C/c2sc3ccccc3[n+]2CCCC(=O)NCCCCNC(=O)/N=C(/N)NCCC[C@@H](NC(=O)C(c2ccccc2)c2ccccc2)C(=O)NCc2ccc(O)cc2)cc1.O=C([O-])C(F)(F)F; 0
Cc1cc(/C=C/c2cc3c4c(c2)CCCN4CCC3)cc(C)[n+]1CCNC(=O)CCCC(=O)/N=C(/N)NCCC[C@@H](NC(=O)C(c1ccccc1)c1ccccc1)C(=O)NCc1ccc(O)cc1.O=C([O-])C(F)(F)F; 2.6

----------
- TARGET ENTITY: Neuropeptide Y receptor type 1 (Homo sapiens) (UniProt P25929)
- Sequence (whole entry): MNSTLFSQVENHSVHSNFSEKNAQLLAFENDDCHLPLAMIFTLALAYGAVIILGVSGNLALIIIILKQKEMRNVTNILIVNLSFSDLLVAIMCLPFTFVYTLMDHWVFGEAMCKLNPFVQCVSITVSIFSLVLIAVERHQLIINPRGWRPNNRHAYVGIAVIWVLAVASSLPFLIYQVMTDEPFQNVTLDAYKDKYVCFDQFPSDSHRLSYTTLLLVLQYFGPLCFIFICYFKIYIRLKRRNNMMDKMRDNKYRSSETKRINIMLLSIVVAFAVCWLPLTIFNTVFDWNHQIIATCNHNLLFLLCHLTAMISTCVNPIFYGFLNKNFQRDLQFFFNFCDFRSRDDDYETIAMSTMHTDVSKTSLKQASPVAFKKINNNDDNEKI
- EXPERIMENT SUMMARY: Antagonist activity at Y1R in human HEL cells assessed as inhibition of pNPY induced [Ca2+] mobilisation
- Format: functional, cell-based
Recorded Kb by entry
METRIC NAME: Kb (nM)

Cc1cc(/C=C/C=C/c2ccc(N(C)C)cc2)cc(C)[n+]1CCCCNC(=O)/N=C(/N)NCCC[C@@H](NC(=O)C(c1ccccc1)c1ccccc1)C(=O)NCc1ccc(O)cc1.O=C([O-])C(F)(F)F; 7.6
Cc1cc(/C=C/C=C/c2ccc(N(C)C)cc2)cc(C)[n+]1CCCCCC(=O)/N=C(/N)NCCC[C@@H](NC(=O)C(c1ccccc1)c1ccccc1)C(=O)NCc1ccc(O)cc1.O=C([O-])C(F)(F)F; 3.7
N=C(N)N(CCC[C@@H](NC(=O)C(c1ccccc1)c1ccccc1)C(=O)NCc1ccc(O)cc1)C(=O)NCCCCN; 510
Cc1cc(/C=C/c2cc3c4c(c2)CCCN4CCC3)cc(C)[n+]1CCCCCC(=O)/N=C(/N)NCCC[C@@H](NC(=O)C(c1ccccc1)c1ccccc1)C(=O)NCc1ccc(CNC(N)=O)cc1.O=C([O-])C(F)(F)F; 12
Cc1cc(/C=C/C=C2\N(C)c3ccc4ccccc4c3C2(C)C)cc(C)[n+]1CCOCCOCCNC(=O)CCCC(=O)/N=C(/N)NCCC[C@@H](NC(=O)C(c1ccccc1)c1ccccc1)C(=O)NCc1ccc(O)cc1.O=C([O-])C(F)(F)F; 6.8
